System: HL-60(TB)
Test Description: Anticancer activity against human HL-60(TB) cells assessed as cell growth at 10^-5 M after 48 hrs by SRB assay
Assay type: functional
Applied Conditions: HL-60, 48 h, read-out: Activity
# Lookup of reported growth at 10 µM keyed by entry
Quantity: growth at 10 µM (%)

Smiles	Experimental System	Measurement
COc1cccc(-c2nc3sccn3c2-c2ccnc(NCCNC(=O)c3ccc(N4CCOCC4)c(C(F)(F)F)c3)n2)c1	HL-60(TB)	85.2
COc1cccc(-c2nc3sccn3c2-c2ccnc(NCCNC(=O)c3cc(C(F)(F)F)cc(C(F)(F)F)c3)n2)c1	HL-60(TB)	131
O=C(NCCNc1nccc(-c2c(-c3cccc(O)c3)nc3sccn23)n1)c1ccccc1	HL-60(TB)	93.3
COc1cccc(-c2nc3sccn3c2-c2ccnc(NCCNC(=O)c3cccc(C(F)(F)F)c3)n2)c1	HL-60(TB)	83.6
COc1cccc(-c2nc3sccn3c2-c2ccnc(NCCNC(=O)c3ccccc3)n2)c1	HL-60(TB)	94.2
COc1cccc(-c2nc3sccn3c2-c2ccnc(NCCNC(=O)c3cc(N4CCOCC4)cc(C(F)(F)F)c3)n2)c1	HL-60(TB)	113
COc1cccc(-c2nc3sccn3c2-c2ccnc(NCCNC(=O)c3ccccc3O)n2)c1	HL-60(TB)	99.5
O=C(NCCNc1nccc(-c2c(-c3cccc(O)c3)nc3sccn23)n1)c1cccc(C(F)(F)F)c1	HL-60(TB)	95.5
